assayed_system: calcium antagonism (thoracic aorta spiral specimen, contraction by calcium) (Cavia porcellus)
Construct: from tissue; host or cells: thoracic aorta spiral strip of male Hartley guinea pig
Sequence (O35505 whole entry): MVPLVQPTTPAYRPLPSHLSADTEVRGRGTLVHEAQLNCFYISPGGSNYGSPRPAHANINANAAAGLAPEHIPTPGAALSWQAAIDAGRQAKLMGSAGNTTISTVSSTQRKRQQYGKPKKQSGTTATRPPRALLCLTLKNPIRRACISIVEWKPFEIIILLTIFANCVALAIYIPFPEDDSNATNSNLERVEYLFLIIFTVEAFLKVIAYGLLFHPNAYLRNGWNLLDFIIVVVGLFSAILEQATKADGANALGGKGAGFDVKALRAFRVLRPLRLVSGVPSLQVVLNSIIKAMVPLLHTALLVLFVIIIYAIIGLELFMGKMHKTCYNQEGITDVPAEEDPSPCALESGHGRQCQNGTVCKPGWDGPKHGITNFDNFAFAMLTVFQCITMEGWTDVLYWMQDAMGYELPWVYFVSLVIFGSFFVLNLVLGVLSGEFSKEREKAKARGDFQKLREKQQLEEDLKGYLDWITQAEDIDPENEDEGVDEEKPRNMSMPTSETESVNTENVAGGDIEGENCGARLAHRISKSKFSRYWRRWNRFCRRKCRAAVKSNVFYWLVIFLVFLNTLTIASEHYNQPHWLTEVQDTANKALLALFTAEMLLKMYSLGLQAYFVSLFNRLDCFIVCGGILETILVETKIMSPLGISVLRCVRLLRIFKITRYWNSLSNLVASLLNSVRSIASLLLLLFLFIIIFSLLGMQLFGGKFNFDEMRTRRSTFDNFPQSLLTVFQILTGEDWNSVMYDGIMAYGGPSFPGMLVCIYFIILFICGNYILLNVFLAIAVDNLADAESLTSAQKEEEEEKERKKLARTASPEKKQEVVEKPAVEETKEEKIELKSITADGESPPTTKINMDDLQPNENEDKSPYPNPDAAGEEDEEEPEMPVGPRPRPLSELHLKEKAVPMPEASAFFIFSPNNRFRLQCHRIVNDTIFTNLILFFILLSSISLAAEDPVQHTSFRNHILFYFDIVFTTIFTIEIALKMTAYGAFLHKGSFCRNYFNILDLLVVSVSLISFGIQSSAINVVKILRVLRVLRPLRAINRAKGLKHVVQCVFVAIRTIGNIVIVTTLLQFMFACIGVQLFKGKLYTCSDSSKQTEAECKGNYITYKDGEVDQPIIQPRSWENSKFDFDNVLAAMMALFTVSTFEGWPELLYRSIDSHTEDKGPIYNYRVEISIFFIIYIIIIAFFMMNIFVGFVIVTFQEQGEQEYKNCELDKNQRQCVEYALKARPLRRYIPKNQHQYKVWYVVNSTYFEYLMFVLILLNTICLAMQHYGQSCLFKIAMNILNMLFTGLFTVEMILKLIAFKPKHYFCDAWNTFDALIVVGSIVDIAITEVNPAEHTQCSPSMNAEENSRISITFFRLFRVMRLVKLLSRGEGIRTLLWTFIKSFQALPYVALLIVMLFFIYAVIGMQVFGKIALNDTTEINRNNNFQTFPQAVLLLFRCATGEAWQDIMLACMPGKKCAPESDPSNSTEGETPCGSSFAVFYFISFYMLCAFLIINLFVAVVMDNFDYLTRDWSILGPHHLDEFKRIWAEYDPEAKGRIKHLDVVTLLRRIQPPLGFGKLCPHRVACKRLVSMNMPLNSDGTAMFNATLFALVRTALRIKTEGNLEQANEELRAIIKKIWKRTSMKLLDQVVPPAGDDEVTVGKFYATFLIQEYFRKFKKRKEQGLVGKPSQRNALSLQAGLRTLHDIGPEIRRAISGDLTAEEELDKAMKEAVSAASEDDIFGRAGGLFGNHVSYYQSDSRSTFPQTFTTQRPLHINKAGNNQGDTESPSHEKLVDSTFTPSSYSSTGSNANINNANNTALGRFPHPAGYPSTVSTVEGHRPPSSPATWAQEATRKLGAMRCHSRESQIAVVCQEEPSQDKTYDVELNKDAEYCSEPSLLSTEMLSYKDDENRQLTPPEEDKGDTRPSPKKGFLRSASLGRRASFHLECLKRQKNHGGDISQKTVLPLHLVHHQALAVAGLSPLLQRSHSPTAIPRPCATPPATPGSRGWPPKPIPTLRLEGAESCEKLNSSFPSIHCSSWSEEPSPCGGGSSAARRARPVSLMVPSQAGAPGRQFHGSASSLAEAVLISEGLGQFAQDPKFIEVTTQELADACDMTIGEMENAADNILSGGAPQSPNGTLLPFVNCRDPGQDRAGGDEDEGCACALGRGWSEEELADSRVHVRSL
experimental_details: Calcium antagonistic effect (contraction response by calcium of spiral thoracic aorta specimen, Magnus method)
Parameters: species or system Hartly male giunea pig
measurement_setup: guinea pig thoracic aorta; antagonism of calcium contraction; read-out: Calcium antagonistic effect, pA2 value (converted)
Where a name gives a salt, the structure may show the parent alone.
List of Kb values.
The reply should contain only the number, in nM.

compound	readout_label	experimental_value
CCOC(=O)c1cc2cccc(OCC(O)CN3CCN(c4ccccc4OC)CC3)c2o1 (stereo not drawn) [Ex. 18 (HCl salt)]	Kb	209
COc1ccccc1N1CCN(CC(O)COc2cccc3cc(C(=O)O)oc23)CC1 (stereo not drawn) [Ex. 21 (HCl salt)]	Kb	3310
Cc1ccccc1N1CCN(CC(O)COc2cccc3cc(C(N)=O)oc23)CC1 (stereo not drawn)	Kb	1350
COc1ccc(N2CCN(CC(O)COc3cccc4cc(C(N)=O)oc34)CC2)cc1 (stereo not drawn)	Kb	1260
COc1ccccc1N1CCN(CC(O)COc2ccc3cc(C#N)oc3c2)CC1 (stereo not drawn) [Ex. 17 (HCl salt)]	Kb	115
CC(=O)c1cc2cccc(OCC(O)CN3CCN(c4cccc(Cl)c4)CC3)c2o1 (stereo not drawn) [Ex. 8 (HCl salt)]	Kb	85.1
COc1ccccc1N1CCN(CC(O)COc2ccc3oc(C(C)=O)cc3c2)CC1 (stereo not drawn) [Ex. 5 (HCl salt)]	Kb	46.8
CC(=O)c1cc2cccc(OCC(O)CN3CCN(c4ccccc4C)CC3)c2o1 (stereo not drawn) [Ex. 6 (HCl salt)]	Kb	468

# Kb lookup, item COc1ccccc1N1CCN(CC(O)COc2cccc3cc(C(C)=O)oc23)CC1 (stereo not drawn) [Ex. 2 (HCl salt)]
195

Another compound to check: COc1ccc(N2CCN(CC(O)COc3cccc4cc(C(C)=O)oc34)CC2)cc1 (stereo not drawn) [Ex. 3 (HCl salt)]
631

// repeat for CC(=O)c1cc2cccc(OCC(O)CN3CCN(c4ccccc4)CC3)c2o1 (stereo not drawn) [Ex. 1 (HCl salt)] and report
2950

Would you mind doing NC(=O)c1cc2cccc(OCC(O)CN3CCN(c4cccc(Cl)c4)CC3)c2o1 (stereo not drawn) as well?
398

---

experimental_details: Accute toxicity test (LD50 value)
measurement_setup: mouse, in vivo; mice; single oral administration; deaths by seventh day; Litchfield-Wilcoxon
Where a name gives a salt, the structure may show the parent alone.
LD50 at 168 h values for the compounds below.

Please review the entries below; each comes with its answer.
compound	LD50 at 168 h
CC(=O)c1cc2cccc(OCC(O)CN3CCN(c4ccccc4C)CC3)c2o1 (centres unmarked) [Ex. 6 (HCl salt)]	> 1500 mg/kg
CC(=O)c1cc2cccc(OCC(O)CN3CCN(c4cccc(Cl)c4)CC3)c2o1 (centres unmarked) [Ex. 8 (HCl salt)]	> 1000 mg/kg
NC(=O)c1cc2cccc(OCC(O)CN3CCN(c4cccc(Cl)c4)CC3)c2o1 (centres unmarked)	> 1000 mg/kg
Cc1ccccc1N1CCN(CC(O)COc2ccc3cc(C(N)=O)oc3c2)CC1 (centres unmarked)	> 1000 mg/kg
COc1ccccc1N1CCN(CC(O)COc2cccc3cc(C#N)oc23)CC1 (centres unmarked) [Ex. 16 (HCl salt)]	900 mg/kg
COc1ccc(N2CCN(CC(O)COc3cccc4cc(C(C)=O)oc34)CC2)cc1 (centres unmarked) [Ex. 3 (HCl salt)]	700 mg/kg

Using the record for CCOC(=O)c1cc2cccc(OCC(O)CN3CCN(c4ccccc4OC)CC3)c2o1 (centres unmarked) [Ex. 18 (HCl salt)] , report its LD50 at 168 h.
> 1000 mg/kg

Queued: Cc1ccccc1N1CCN(CC(O)COc2cccc3cc(C(N)=O)oc23)CC1 (centres unmarked)
> 1500 mg/kg

Similarly, COc1ccccc1N1CCN(CC(O)COc2ccc3oc(C(N)=O)cc3c2)CC1 (centres unmarked) ?
> 1500 mg/kg

Same question for CCOC(=O)c1cc2cc(OCC(O)CN3CCN(c4ccccc4C)CC3)ccc2o1 (centres unmarked) [Ex. 20 (HCl salt)] please.
> 1500 mg/kg

And COc1ccccc1N1CCN(CC(O)COc2cccc3cc(C(=O)O)oc23)CC1 (centres unmarked) [Ex. 21 (HCl salt)] ?
> 1000 mg/kg

# iterate: CC(=O)c1cc2cc(OCC(O)CN3CCN(c4ccccc4C)CC3)ccc2o1 (centres unmarked) [Ex. 7 (HCl salt)]
> 2000 mg/kg

Param item: COc1ccccc1N1CCN(CC(O)COc2ccc3cc(C(C)=O)oc3c2)CC1 (centres unmarked) [Ex. 4 (HCl salt)]
> 1000 mg/kg

Would you mind doing Cc1ccccc1N1CCN(CC(O)COc2cccc3cc(C(C)O)oc23)CC1 (centres unmarked) as well?
> 1000 mg/kg

---

Below: a set of entries, each annotated with reported LD50 at 168 h.
experimental_details: Accute toxicity test (LD50 value)
measurement_setup: mouse, in vivo; mice; single oral administration; deaths by seventh day; Litchfield-Wilcoxon
Counter-ions that a name gives are not always drawn.

compound	LD50 at 168 h
COc1ccccc1N1CCN(CC(O)COc2ccc3cc(C#N)oc3c2)CC1 (stereo not drawn) [Ex. 17 (HCl salt)]	900 mg/kg
COc1ccccc1N1CCN(CC(O)COc2ccc3oc(C(C)=O)cc3c2)CC1 (stereo not drawn) [Ex. 5 (HCl salt)]	> 1500 mg/kg
COc1ccccc1N1CCN(CC(O)COc2cccc3cc(C(N)=O)oc23)CC1 (stereo not drawn) [Ex. 9]	> 1500 mg/kg
COc1ccc(N2CCN(CC(O)COc3cccc4cc(C(N)=O)oc34)CC2)cc1 (stereo not drawn) [Ex. 10]	1100 mg/kg
COc1ccccc1N1CCN(CC(O)COc2cccc3cc(C(C)=O)oc23)CC1 (stereo not drawn) [Ex. 2]	> 1500 mg/kg

I have this compound here, CC(=O)c1cc2cccc(OCC(O)CN3CCN(c4ccccc4)CC3)c2o1 (stereo not drawn) [Ex. 1 (HCl salt)] , and I need its recorded LD50 at 168 h.
> 1000 mg/kg

---

Reported LD50 at 168 h values are given for each entry in this list.
experimental_details: Accute toxicity test (LD50 value)
measurement_setup: mouse, in vivo; mice; single oral administration; deaths by seventh day; Litchfield-Wilcoxon
Counter-ions that a name gives are not always drawn.

// below: answered compounds
compound	LD50 at 168 h
COc1ccccc1N1CCN(CC(O)COc2ccc3cc(C(N)=O)oc3c2)CC1 (stereo not drawn)	> 1500 mg/kg
CCOC(=O)c1cc2cc(OCC(O)CN3CCN(c4ccccc4OC)CC3)ccc2o1 (stereo not drawn) [Ex. 19 (HCl salt)]	> 1500 mg/kg

The record that follows has no LD50 at 168 h shown yet.
Which LD50 at 168 h value belongs to COc1ccccc1N1CCN(CC(O)COc2cccc3cc(C(C)O)oc23)CC1 (stereo not drawn) ?
> 1500 mg/kg

Data provenance: patent US4652566A
